System: K-562 leukemia
Experiment notes: NCI-60 one-dose screen, 48 h (100 = growth as untreated, 0 = no growth, -100 = all killed)
Measurement conditions: 10 µM unless noted
About 83,000 compounds went through this panel and 20% of them were active in at least one assay; those are over-represented in the sample as a whole.
Metric: growth (%)
Give bare numbers, in %.

These recorded examples may help you get a feel for the data.
# lookup: growth of Nc1cc(C(F)(F)F)c(-c2cc(N3CCOCC3)nc(N3CCOCC3)n2)cn1
0.801

Also check CS(=O)(=O)CCNCc1ccc(-c2ccc3ncnc(Nc4ccc(OCc5cccc(F)c5)c(Cl)c4)c3c2)o1
-22.7

Another: CCOc1ccc(N=C(C)Nc2ccc(OCC)cc2)cc1
99.6

Would you kindly repeat that for CCNC(=O)Nc1nc2ccc(Oc3ccnc(C(=O)NC)c3)cc2s1 ?
8.24

Quick batch: growth for everything below.
1. C[C@@H](Oc1cc(-c2cnn(C3CCNCC3)c2)cnc1N)c1c(Cl)ccc(F)c1Cl
2. Cc1csc(-c2nnc(Nc3ccc(Oc4ncccc4-c4ccnc(N)n4)cc3)c3ccccc23)c1
3. O=C1C=CC2(NN=C(c3ccccc3)N2c2cccc(Cl)c2)c2cccc(O)c21 (stereo unspecified)
4. CC1(O)CC(c2nc(-c3ccc4ccc(-c5ccccc5)nc4c3)c3c(N)nccn23)C1 (stereo unspecified)

1: -38.7; 2: 40; 3: 23; 4: 36.9

Ref: PubChem BioAssay (NCI)
